Provenance of the data: PubChem BioAssay (NCI)

System: HCC-2998 colon
Assay Details: NCI-60 one-dose screen, 48 h
Condition Label: 10 µM unless noted
Description: Growth inhibition of the HCC-2998 human tumor cell line is measured as a screen for anti-cancer activity. Cells are grown in 96 well plates and exposed to the test compound for 48 hours. Compounds are tested at a single concentration, which is 10^-5 M for most compounds. The reported endpoint is percent growth (GI% or GIPRCNT), where numbers from 0 - 100% represent growth inhibition, and numbers from -100% - 0 represent cell death. For example, a value of 40 represents 60% growth inhibition. […]
About 83,000 compounds went through this panel and 20% of them were active in at least one assay; those are over-represented in the sample as a whole. Active and inactive are the calls of the source. Rule for the calls: active = growth percent below 10; inactive = the rest.
Outcome codes: active, inactive

Compound	Measured On	Category Label
COc1cc2cc(NCc3cccc(Cl)c3)nc(C)c2cc1OC	HCC-2998 colon	inactive
COc1ccc(Nc2ncc(Br)c(NCCCNC(=O)c3cccs3)n2)cc1	HCC-2998 colon	inactive
O=C(CN1C(=O)S/C(=C\c2ccccc2)C1=O)Nc1ncc(Cc2ccccc2Cl)s1	HCC-2998 colon	inactive
O=C(/C=C/c1cn(-c2ccccc2)nc1-c1ccc(Cl)cc1)c1ccc(F)cc1	HCC-2998 colon	inactive
NC(=O)c1cc(I)ccc1NC(=O)/C=C/c1ccccc1	HCC-2998 colon	active
CCC(=O)Oc1ccc(-c2ccccc2)cc1Br	HCC-2998 colon	inactive
C=CCn1c(SCC(=O)Nc2ccc(C(=O)/C=C/c3ccc(Cl)cc3)cc2)nnc1-c1ccc(Br)cc1	HCC-2998 colon	inactive
CCCCCCCCCCCCCCCCCCOc1ccccc1CC(=O)OCC[N+](C)(C)C	HCC-2998 colon	inactive
O=C(/C=C/c1cccc(Cl)c1)c1ccc(Nc2nc(Nc3ccc(F)cc3)nc(Nc3ccc(Cl)cc3)n2)cc1	HCC-2998 colon	inactive
CCN1C(=S)N(c2ccccc2)C2NC(=S)N(/N=C/C=C/c3ccccc3OC)C21 (stereo not given)	HCC-2998 colon	inactive
C=CC[Se]C(=O)Cc1c(C)n(C(=O)c2ccc(Cl)cc2)c2ccc(OC)cc12	HCC-2998 colon	active
Cc1c[n+](Cc2ccc3ccccc3c2)cn1Cc1ccc2ccccc2c1	HCC-2998 colon	inactive
COC(=O)[C@@H](CCCCNC(=O)[C@]12CCC(C)(C)C[C@@H]1C1=CC[C@@H]3[C@@]4(C)C/C(=C/c5ccco5)C(=O)C(C)(C)[C@@H]4CC[C@@]3(C)[C@]1(C)CC2)NC(=O)[C@]12CCC(C)(C)C[C@@H]1C1=CC[C@@H]3[C@@]4(C)C/C(=C/c5ccco5)C(=O)C(C)(C)[C@@H]4CC[C@@]3(C)[C@]1(C)CC2	HCC-2998 colon	inactive
CC(=O)n1nc(C(=O)OC(C)(C)c2ccccc2)c2ccccc21	HCC-2998 colon	inactive
CCC(C(=O)[C@@H](C)[C@@H](O)[C@H](C)[C@@H]1O[C@@H]([C@@H](CC)C(=O)ONC(=O)c2ccccc2)CC[C@@H]1C)[C@H]1O[C@]2(C=CC(=O)[C@]3(CC[C@@](C)([C@H]4CC[C@](O)(CC)[C@H](C)O4)O3)O2)[C@H](C)C[C@@H]1C (stereo not given in full)	HCC-2998 colon	inactive

###

Test system: HS 578T breast
Assay Details: NCI-60 one-dose screen, 48 h (100 = growth as untreated, 0 = no growth, -100 = all killed)
Condition Label: 10 µM unless noted
About 83,000 compounds went through this panel and 20% of them were active in at least one assay; those are over-represented in the sample as a whole.
Reported growth is given for each of the following compounds.
Test Readout: growth (%)

Compound	Recorded Measurement
N#CC1=C(c2ccccc2)Nc2c(c(-c3ccc(Cl)cc3)nn2-c2ccccc2)C12C(=O)Nc1ccc(Cl)cc12 (stereo not drawn)	62.2
O=C(CN1CCOCC1)Nc1nc(-c2cc3ccccc3oc2=O)cs1	92.8
CCCC/C=C/[C@@H]1C[C@H]1CCO	101
COC(=O)CC[C@H](C)[C@H]1CC[C@H]2[C@@H]3CC[C@@H]4CC5(CC[C@]4(C)[C@H]3CC(=O)[C@]12C)Nc1ccccc1NC5=NC(C)(C)C (stereo partly drawn)	88.7
O=S(=O)(NCCNc1nccc(-c2c(-c3ccc(F)c(O)c3)nc3occn23)n1)c1ccc(Cl)cc1	89
CCOC(=O)NC(C)C	111
CCN(CC)Cc1cc(C=C2C(=O)NC(=S)NC2=O)cc(OC)c1O	103
CSc1oc(C)nc1[P+](c1ccccc1)(c1ccccc1)c1ccccc1	55
CCOC(=O)C#Cc1c(C(=O)OCC)nnn1Cc1ccc([N+](=O)[O-])cc1	91.2
CC(C)(Sc1cc(C(C)(C)C)c(O)c(C(C)(C)C)c1)Sc1cc(C(C)(C)C)c(OC(=O)CCCC(=O)O)c(C(C)(C)C)c1	80.1
N#Cc1c(-c2ccccc2)cc(-c2ccccc2)n(CCCC(=O)Nc2ccccc2N)c1=O	43.5
Clc1ccc(/C=N\N=C\c2ccc(Cl)c(Cl)c2)cc1Cl	106
CCOC(=O)c1csc(NC(=O)COc2ccc(/C=C3\Oc4ccccc4C3=O)cc2)n1	91.1

###

Tested on: EKVX NSCLC
Assay Details: NCI-60 one-dose screen, 48 h (100 = growth as untreated, 0 = no growth, -100 = all killed)
Condition Label: 10 µM unless noted
Compounds without any hit were thinned out: in the full panel of roughly 83,000, 20% have a hit.
growth for assorted molecules

Smiles Code	Measured On	growth (%)
COc1cc2c(cc1OCCCN1CCN(CCCOc3cc4c(cc3OC)C(=O)N3CCC[C@H]3C=N4)CC1)C=CC(C)(C)O2	EKVX NSCLC	-100
CN1CCN(C(=O)c2ccc(NC(=O)c3cc4c(nn3)NCCN4Cc3cc(Cl)ccc3Cl)cc2)CC1	EKVX NSCLC	85.8
CCCCCCCC[C@@H]1N[C@@H](C(=O)OC)Cc2c1[nH]c1ccccc21	EKVX NSCLC	92
O=C1C(Cl)=C(Nc2ccc(S(=O)(=O)N3CCOCC3)cc2)C(=O)c2ccccc21	EKVX NSCLC	53.5

###

System: A549/ATCC NSCLC
Assay Details: NCI-60 one-dose screen, 48 h (100 = growth as untreated, 0 = no growth, -100 = all killed)
Condition Label: 10 µM unless noted
The panel holds about 83,000 compounds, 20% with a hit somewhere; the sample as a whole holds those more often. Activity calls are given as the source filed them. The calls were made as follows: active = growth percent below 10; inactive = the rest.
Test Readout: growth

Compound	Test Readout	Recorded Measurement
Cc1cccc(/C=C2\CN(C(=O)OC(C)(C)C)C/C(=C\c3cccc(C)c3)C2=O)c1	growth	97.4% (inactive)
COc1ccc(C(=O)Nc2cccc(-c3cc(=O)c4c(OC)c(OC)c(OC)cc4o3)c2)cc1	growth	64.7% (inactive)
COc1ccc(-c2nn(-c3cccc(Cl)c3)cc2-c2cc(-c3ccc(Br)cc3)nc(N)n2)cc1	growth	81.2% (inactive)
O=C1c2c(c3c4ccccc4[nH]c3c3ccc4ccccc4c23)C(=O)N1CCN1CCOCC1	growth	28.8% (inactive)
O=C(c1ccncc1)N1N=C(c2ccc(Cl)cc2)C[C@H]1c1cn(-c2ccccc2)nc1-c1ccccc1	growth	81.7% (inactive)
CCC(C)N(CCNc1cc(OC)cc2cccnc12)CC(C)C (configuration not stated)	growth	102% (inactive)
COCCNC(=O)Nc1ccc2nc(-c3cccs3)c(-c3cccs3)nc2c1	growth	87.5% (inactive)
COc1cc2c(cc1OC)C(C)N(S(N)(=O)=O)CC2 (configuration not stated)	growth	101% (inactive)
COC(=O)CC[C@H](C)[C@H]1CC[C@H]2[C@@H]3CC[C@@H]4CC5(CC[C@]4(C)[C@H]3CC(=O)[C@]12C)Nc1ccccc1NC5=NC(C)(C)C (some centres not stated)	growth	82.3% (inactive)
CCOC(=O)C(=O)C(C(=O)OCC)c1ccccc1 (configuration not stated)	growth	122% (inactive)
COc1ccccc1N1CCCCC1	growth	101% (inactive)
Cc1ccc2c(Cn3cc(CSc4nc5ccccc5o4)nn3)cc(=O)oc2c1	growth	105% (inactive)
CN(C)c1ccc(-c2c(C#N)c(N)nn2C(=O)c2ccc(NC(=O)c3ccccn3)cc2)cc1	growth	96.1% (inactive)
Oc1c(Br)cc(Br)c2ccc(Cn3cc(-c4ccc(C(F)(F)F)cc4)nn3)nc12	growth	103% (inactive)
Cc1ccc(NC(=O)Cn2cc(CN3CCN(c4ccnc5cc(Cl)ccc45)CC3)nn2)cc1	growth	93.4% (inactive)
Cc1ccc(CNc2ccc3nc(CCC4CCCCC4)[nH]c3c2)cc1	growth	63.3% (inactive)
Nc1ncnc2c1N=C(c1ccc(Br)cc1)CC(c1cccc(Nc3ccnc4cc(C(F)(F)F)ccc34)c1)N2 (configuration not stated)	growth	55.2% (inactive)
COc1ccc(OC)c(/C=N/Nc2ncnc3c2c(C)nn3C)c1	growth	104% (inactive)
Nc1nc(-c2ccc(Cl)cc2)nc2c1sc(=S)n2-c1ccccc1	growth	23.9% (inactive)
Nc1nc2ccccc2c2c(=O)c3cccc(Cl)c3sc12	growth	76.8% (inactive)
N=C(N)c1ccc(-c2ccc(-c3ccc(Cl)c(Cl)c3)s2)nc1	growth	-45.6% (active)
O=C(Cn1cc(CSc2nc3ccccc3o2)nn1)Nc1ccc(F)cc1F	growth	113% (inactive)
C=CCSc1nnc(NC(=O)CCl)s1	growth	95.2% (inactive)
Cc1csc(Nc2nc(-c3ccccn3)nc(C(Cl)(Cl)Cl)n2)n1	growth	79.4% (inactive)
Fc1cnccc1C1CC(c2ccc(N3CCNCC3)cc2)=NN1 (configuration not stated)	growth	76.2% (inactive)
COc1cccc(CNc2ccc3ncnc(Nc4ccc(F)c(Cl)c4)c3c2)c1	growth	53.1% (inactive)
CN1CCN(C(=O)c2ccc(NC(=O)c3cc4c(nn3)NCCN4Cc3cc(Cl)ccc3Cl)cc2)CC1	growth	55.2% (inactive)
COc1ccc(C/C(C)=C(/c2ccc(OCCN(C)C)cc2)c2ccc(OC(=O)NCc3ccccc3)cc2)cc1	growth	55% (inactive)
Cc1ccc(C[P+](c2ccccc2)(c2ccccc2)c2ccccc2)cc1	growth	26.9% (inactive)
CCOC(=O)c1c(NC(=O)c2cccc(C(F)(F)F)c2)sc2c(CN(C)C)c(O)ccc12	growth	60.8% (inactive)
O=S(=O)(Nc1cc(Cl)ccc1Cl)c1ccc(-c2cnc(C3CC3)o2)cc1	growth	45.2% (inactive)
CCOC(=O)c1cc(C(=O)c2cc(OC)c(OC)c(OC)c2)n2ncccc12	growth	24.1% (inactive)
